- study.system: T1, human GIP receptor (human, UniProt P48546 22-466)
- T1 sequence (looked up): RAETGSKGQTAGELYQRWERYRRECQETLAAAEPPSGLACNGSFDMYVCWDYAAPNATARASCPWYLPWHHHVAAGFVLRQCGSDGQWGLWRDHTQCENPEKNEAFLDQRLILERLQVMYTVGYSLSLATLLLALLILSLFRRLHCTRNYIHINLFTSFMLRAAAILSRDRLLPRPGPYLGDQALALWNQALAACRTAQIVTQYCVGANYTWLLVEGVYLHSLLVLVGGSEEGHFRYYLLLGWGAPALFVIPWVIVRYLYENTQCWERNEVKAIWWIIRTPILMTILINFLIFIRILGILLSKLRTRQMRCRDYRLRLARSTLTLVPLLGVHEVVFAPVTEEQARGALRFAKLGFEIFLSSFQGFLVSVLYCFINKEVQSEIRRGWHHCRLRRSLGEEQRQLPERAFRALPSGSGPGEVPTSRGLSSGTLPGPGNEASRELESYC
- assay.overview: cell-based or functional assay
Square brackets hold non-standard residues; d marks the D form. Ends that are not written are not given here. * marks the point of attachment. Acetyl(2-(4-imidazolyl)) = O=C(Cc1c[nH]cn1)*; Aib = CC(C)(N)C(=O)O
observed.property: In vitro activity (%) compared with native peptide, vs GIP

{"columns": ["binder", "result"],
 "data": [
  ["[Acetyl(2-(4-imidazolyl))]GEGTFISDYSIQLDEIAVQDFVEWLLAQKPSSGAPPPSHG [triple agonist of SEQ ID NO: 13]", "< 0.1%"]
]}

Please look at this binder and report its In vitro activity (%) compared with native peptide, vs GIP: [Acetyl(2-(4-imidazolyl))]GQGTFTSDLSIQYDSEHQRDFIEWLKDTGPSSGAPPPSHG (not fully specified) [triple agonist of SEQ ID NO: 19]
< 0.1%

Please look at this binder and report its In vitro activity (%) compared with native peptide, vs GIP: H[Aib]QGTFTSDKSKYLDERACQDFVQWLLDGGPSSGAPPPS (not fully specified) [triple agonist of SEQ ID NO: 40]
< 0.1%
